Origin of measurements: patent US9480259B2

target: Arabidopsis thaliana SHMT; assay: SHMT activity assay (ED50 SHMT), coupled with N5,N10-CH2-THF dehydrogenase, NADH at 340 nm; format: biochemical; conditions: Arabidopsis thaliana SHMT enzyme assay; values given as upper bounds
pEC50: −log10 of the molar value.
assay-metric: pEC50

Previously resolved entries follow.
[[record]]
compound = "Cc1n[nH]c2c1C(c1cc(Cl)cc(CCCc3nnn[nH]3)c1)(C1CCC1)C(C#N)=C(N)O2 (stereo not shown) [Compound 2.677]"
value_reported = "> 8.00"

[[record]]
compound = "Cc1n[nH]c2c1C(c1cc(CCc3nnn[nH]3)cc(-c3nnn[nH]3)c1)(C1CCC1)C(C#N)=C(N)O2 (stereo not shown) [Compound 2.655]"
value_reported = "> 5.00"

[[record]]
compound = "Cc1n[nH]c2c1C(c1cc(-c3nnn[nH]3)cc(N(C)C(=O)CCCC#N)c1)(C1CCC1)C(C#N)=C(N)O2 (stereo not shown) [Compound 2.690]"
value_reported = "> 6.00"

[[record]]
compound = "Cc1n[nH]c2c1C(c1cc(C#N)cc(N(C)CC(=O)O)c1)(C1CCC1)C(C#N)=C(N)O2 (stereo not shown) [Compound 2.693]"
value_reported = "> 7.00"

[[record]]
compound = "Cc1n[nH]c2c1C(c1cc(C#N)cc(Cc3nnn[nH]3)c1)(C(C)C)C(C#N)=C(N)O2 (stereo not shown) [Compound 2.738]"
value_reported = "> 7.00"

[[record]]
compound = "Cc1n[nH]c2c1C(c1ccc(CCCc3nnn[nH]3)c(Cl)c1)(C1CCC1)C(C#N)=C(N)O2 (stereo not shown) [Compound 2.678]"
value_reported = "> 8.00"


Q) Sample Cc1n[nH]c2c1C(c1cc(Cl)cc(Cl)c1)(C(C)(F)F)C(C#N)=C(N)O2 (stereo not shown) [Compound 2.653] — what was its pEC50?
A) > 7.00

====

This listing pairs compounds with measured EC50.
Target: Arabidopsis thaliana SHMT
Test: SHMT activity assay (ED50 SHMT), coupled with N5,N10-CH2-THF dehydrogenase, NADH at 340 nm
Assay type: biochemical
Settings: Table 2; values given as upper bounds
Procedure: Determination of the ED50 SHMT was carried out as described hereinunder. Purification of Arabidopsis thaliana SHMT The following buffers were used during the purification protocol: […] The rate of N5,N10-CH2-THF formation catalyzed by SHMT was monitored at 340 nm by coupling with excess N5,N10-CH2-THF dehydrogenase, which converts NAD+to NADH. […] Inhibition of initial velocity was determined by adding various inhibitors of the SHMT reaction and monitored as described. […]

Example results:
[[record]]
compound = "Cc1n[nH]c2c1C(c1ccc(CC(=O)O)c(C(F)(F)F)c1)(C1CCC1)C(C#N)=C(N)O2 (stereo not drawn) [Compound 2.544]"
target_or_system = "Arabidopsis thaliana SHMT"
value_reported = "< 100 nM"

[[record]]
compound = "CCC1(c2ccc(NC(=O)C(C)(C)C)cc2)C(C#N)=C(N)Oc2[nH]nc(C)c21 (stereo not drawn) [Compound 2.39.]"
target_or_system = "Arabidopsis thaliana SHMT"
value_reported = "< 10000 nM"

[[record]]
compound = "Cc1n[nH]c2c1C(c1cc(Br)cc(OCC(=O)O)c1)(C1(F)CC1)C(C#N)=C(N)O2 (stereo not drawn) [Compound 2.503]"
target_or_system = "Arabidopsis thaliana SHMT"
value_reported = "< 10000 nM"

[[record]]
compound = "COC(=O)c1cccc(-c2cc(Cl)cc(C3(C4CCC4)C(C#N)=C(N)Oc4[nH]nc(OC)c43)c2)c1 (stereo not drawn) [Compound 2.457]"
target_or_system = "Arabidopsis thaliana SHMT"
value_reported = "< 10 nM"

[[record]]
compound = "COCc1n[nH]c2c1C(c1cccc(C(F)(F)F)c1)(C1CCC1)C(C#N)=C(N)O2 (stereo not drawn) [Compound 2.196.]"
target_or_system = "Arabidopsis thaliana SHMT"
value_reported = "< 1000 nM"

[[record]]
compound = "Cc1n[nH]c2c1C(c1cc(Cl)cc(Oc3ccccc3)c1)(C1CCC1)C(C#N)=C(N)O2 (stereo not drawn) [Compound 2.179.]"
target_or_system = "Arabidopsis thaliana SHMT"
value_reported = "< 100 nM"


Q) Form: Entry = CCC1(c2cccc(C(F)(F)F)c2)C(C#N)=C(N)Oc2[nH]nc(C(C)C)c21 (stereo not drawn) [Compound 2.118.] | System = Arabidopsis thaliana SHMT | EC50 = ____
A) < 1000 nM

Q) Arabidopsis thaliana SHMT / EC50 / COC(=O)CCc1cccc(-c2cc(C#N)cc(C3(C4CCC4)C(C#N)=C(N)Oc4[nH]nc(C)c43)c2)c1 (stereo not drawn) [Compound 2.525] : value?
A) < 10 nM

Q) Provide value of EC50 for this record tested with Arabidopsis thaliana SHMT: COC(=O)c1ccc(-c2cc(Cl)cc(C3(C4CCC4)C(C#N)=C(N)Oc4[nH]nc(C)c43)c2)cc1 (stereo not drawn) [Compound 2.458]
A) < 100 nM

Q) Record lookup: for Arabidopsis thaliana SHMT, what EC50 belongs to CCC1(c2cc(C#N)cc(C(F)(F)F)c2)C(C#N)=C(N)Oc2[nH]nc(C(C)C)c21 (stereo not drawn) [Compound 2.581] ?
A) < 100 nM

Q) Request - read-out EC50 | tested on Arabidopsis thaliana SHMT | compound Cc1n[nH]c2c1C(c1cc(Cl)cc(-c3cccc(C(=O)O)c3)c1)(C1CCC1)C(C#N)=C(N)O2 (stereo not drawn) [Compound 2.482]
A) < 10 nM

Q) Please tell me: EC50 of CCC1(c2ccc(Oc3ccccc3)cc2)C(C#N)=C(N)Oc2[nH]nc(C3CC3)c21 (stereo not drawn) [Compound 2.131.] , system Arabidopsis thaliana SHMT?
A) < 10000 nM

Q) Lookup: EC50 / Arabidopsis thaliana SHMT / Cc1n[nH]c2c1C(c1cc(Cl)cc(OCc3nnn[nH]3)c1)(C1CCC1)C(C#N)=C(N)O2 (stereo not drawn) [Compound 2.446]
A) < 10 nM

Q) Could you share what EC50 was measured for COC(=O)c1ccc(-c2cc(C#N)cc(C3(C4CCC4)C(C#N)=C(N)Oc4[nH]nc(C)c43)c2)cc1OC (stereo not drawn) [Compound 2.522] , tested on Arabidopsis thaliana SHMT?
A) < 10 nM

Q) Enter reported EC50 observed with Arabidopsis thaliana SHMT for Cc1n[nH]c2c1C(c1cc(C#N)cc(-c3ccc(Cl)c(C(=O)O)c3)c1)(C1CCC1)C(C#N)=C(N)O2 (stereo not drawn) [Compound 2.556]
A) < 10 nM

Q) Write down the reported EC50 of CCC1(c2cccc(Br)c2)C(C#N)=C(N)Oc2[nH]nc(C)c21 (stereo not drawn) [Compound 2.4.] , test system: Arabidopsis thaliana SHMT.
A) < 1000 nM

Q) Which EC50 is reported with Arabidopsis thaliana SHMT for this entry: COCC(=O)N(C)c1cc(C#N)cc(C2(C3CCC3)C(C#N)=C(N)Oc3[nH]nc(C)c32)c1 (stereo not drawn) [Compound 2.615] ?
A) < 10 nM

====

biological target: Arabidopsis thaliana SHMT; experiment: SHMT activity assay (ED50 SHMT), coupled with N5,N10-CH2-THF dehydrogenase, NADH at 340 nm; assay type: biochemical; conditions: Table 2; values given as upper bounds
The reader will find reported EC50 values listed item by item below.

[[record]]
compound = "Cc1n[nH]c2c1C(c1cc(Cl)cc(Cl)c1)(C1(F)CC1)C(C#N)=C(N)O2 (stereo not shown) [Compound 2.214.]"
target_or_system = "Arabidopsis thaliana SHMT"
assay_metric = "EC50"
value_reported = "< 10 nM"


Q) Which EC50 value belongs to CCCC1(c2cc(C#N)cc(C#N)c2)C(C#N)=C(N)Oc2[nH]nc(CC)c21 (stereo not shown) [Compound 2.579] ?
A) < 100 nM

Q) Value lookup for EC50; key = Cc1n[nH]c2c1C(c1cc(Cl)cc(Cl)c1)(C1(F)CCC1)C(C#N)=C(N)O2 (stereo not shown) [Compound 2.180.]
A) < 100 nM

Q) Tell me the measured EC50 of Cc1n[nH]c2c1C(c1cc(C#N)cc(N(C)C(=O)c3cccc(C(=O)O)c3)c1)(C1CCC1)C(C#N)=C(N)O2 (stereo not shown) [Compound 2.633] , please.
A) < 100 nM

Q) Which EC50 value is on record for Cc1n[nH]c2c1C(c1cc(C#N)cc(-c3ccc(C(=O)O)s3)c1)(C1CCC1)C(C#N)=C(N)O2 (stereo not shown) [Compound 2.640] ?
A) < 10 nM

Q) Requested read-out: EC50. Entry: Cc1n[nH]c2c1C(c1ccc(OCCC#N)c(Cl)c1)(C1CCC1)C(C#N)=C(N)O2 (stereo not shown) [Compound 2.645]
A) < 10 nM

Q) Which EC50 is listed for CCCC1(c2cc(C#N)cc(C(F)(F)F)c2)C(C#N)=C(N)Oc2[nH]nc(COC)c21 (stereo not shown) [Compound 2.589] ?
A) < 100 nM
